molecular target: Homeobox protein Hox-A13 (Mus musculus); test: inhibitors of HoxA13-DNA binding, primary screen, biochemical, fluorescence polarization, labeled oligonucleotide (AID 1185); conditions: 15 min, higher = more signal, called active from +8 up or from −8 down
Rule: z-score under -0.3 gives false, otherwise true.

• O=C1O[C@@H](c2ccccc2)[C@@H](c2ccccc2)N2[C@@H](c3ccc(OCCO)cc3)[C@]3(C(=O)Nc4ccc(C#CCCO)cc43)[C@@H](C(=O)N3CCN(c4ncccn4)CC3)[C@H]12 = true
• CO[C@@H]1COC(=O)[C@H](C)NC(=O)CC=C[C@@H](C)[C@H](OC)COC(=O)[C@H](C)NC(=O)CC=C[C@H]1C = true
• CCOC(=O)C[C@H]1[C@H](OC(=O)c2ccccc2-c2ccccc2)[C@@H](NC(=O)C2CCCCC2)c2cc(OCCCO)ccc2N1C(=O)c1ccccc1 = false
• CC(C)(C)OC(=O)CC[C@]1(C(=O)N2CCCCC2)N=C(c2ccc(OCCCO)cc2)O[C@H]1c1ccccc1 = false
• CCCCO[C@H]1C[C@H]2C(Br)=C[C@@]1(CO)C(=O)[C@]21CO1 = true
• CO[C@H]1COC(=O)[C@@H](C)COC(=O)[C@H](Cc2ccccc2)NC(=O)CC=C[C@H]1C = true
• COCCOC(=O)N1C(=O)[C@@]2(c3cc(C#CCCO)ccc31)[C@H](C(=O)N1CCCCCCC1)[C@H]1C(=O)O[C@H](c3ccccc3)[C@H](c3ccccc3)N1[C@@H]2c1ccc(O)cc1 = false
• COC(=O)Cn1c(C(=O)N2CCCC2)cc2c1C[C@H]1CN(C(=O)c3ccccc3)[C@@](Cc3ccc(OC)cc3)(C(=O)OC)[C@@H]21 = false

Problem: Reported z-score at or above -0.3? CCOC(=O)C1=CCC(c2cccc3ccccc23)N(S(=O)(=O)c2ccc(C)cc2)C1 (centres undefined)
Result: false

Problem: Reported z-score at or above -0.3? C#C[C@H](O[Si](C#Cc1ccccc1)(C(C)C)C(C)C)c1ccccc1
Result: false

Problem: Reported z-score at or above -0.3? Cc1ccc(S[C@]2(C(=O)NCCN3CCOCC3)CC(=O)N(C3Cc4ccccc4C3)[C@@H]2c2ccc(CO)cc2I)cc1
Result: false

Where do the numbers come from? From PubChem BioAssay.
